assay: activators of NF-kB expression in neurons, primary screen, cell-based, HTS (AID 1239); conditions: human neuronal cells, NF-kB reporter expression; at 12.5 µM
About 3,100 (1.6%) of roughly 190,000 compounds were called active. Rule as the data show it: active = fold change above about 3.3; inconclusive = no clear call, values can overlap the other calls; inactive = below that. This is one part of a sample in which actives are shown more often than they occur.
Outcome (select one): true for active, false for inactive

Look over these answered cases.
molecule: CC[n+]1c(C)n(-c2ccccc2)c2ccc(NC(C)=O)cc21
category: false

molecule: O=C(NNc1ncnc2c1cnn2-c1ccccc1)c1ccco1
category: false

molecule: CNc1nc2c(C)cccn2c(=O)c1C=Nc1ccc(OC)cc1
category: false

molecule: CCOC(=O)Cc1csc(NC(=O)COc2ccc3c(C)cc(=O)oc3c2)n1
category: false

-- ask Please state the recorded outcome for this molecule: C=CCn1cc(-c2cccc(C(F)(F)F)c2)cc(C#N)c1=O
-- reply false

----------
assay: activators of NF-kB expression in neurons, primary screen, cell-based, HTS (AID 1239); settings: human neuronal cells, NF-kB reporter expression; at 12.5 µM
The campaign covered roughly 190,000 compounds. About 3,100 (1.6%) were called active. No stated cut-off is given here; in the data, active means fold change above about 3.3; inconclusive means no clear call, values can overlap the other calls; inactive means below that. The entries come from a sample that favours actives as a whole.
The reply should be one of these categories: 1.0 (active), 0.0 (inactive)

Solved cases below.
compound: N#CCC(=O)N/N=C/c1ccc(SCC(=O)Nc2ccccc2)o1
category: 0.0
--
compound: CC(C)C1Nc2c(C(=O)O)cccc2C(Nc2ccccc2C(=O)O)C1(C)C (stereo unspecified)
category: 0.0

For the next question, use this compound.
-- ask Each compound tested received a call. Report the one for Cc1ccc(S(=O)(=O)N(CC(=O)NN=C2CCN(C)CC2)c2ccc(F)cc2)cc1 .
-- reply 0.0

----------
assay: activators of NF-kB expression in neurons, primary screen, cell-based, HTS (AID 1239); settings: human neuronal cells, NF-kB reporter expression; at 12.5 µM; hits give high values
Among all 190,000 compounds or so, about 3,100 (1.6%) were called active. Only a selection was taken, and actives are over-represented in it overall.
Let's look at some compounds and their measured fold change.

-- ask Answer with the recorded fold change of COc1ccccc1OCc1nc2ccccc2s1 only.
-- reply 4.3 (active)

-- ask Give the reported fold change for this compound. NC(=O)COC(=O)/C=C/c1ccc2ccccc2n1
-- reply 0.97 (inactive)

-- ask Recall and state the measured fold change for COc1cc(NC(=O)c2cccs2)ccc1NC(=O)c1ccccc1Cl .
-- reply 0.87 (inactive)

-- ask For CCOc1cc(C(=O)N2CCc3cc(OC)c(OC)cc3C2)ccc1OC(F)F , write its fold change.
-- reply 4.22 (active)

-- ask Query fold change for CC(C)C(=O)Nc1c(C(=O)c2ccc(F)cc2)oc2ccccc12
-- reply 0.89 (inactive)

-- ask Output fold change of COc1cc2c(cc1OC)CN(C(=O)c1cc(=O)c3ccccc3o1)CC2
-- reply 0.82 (inactive)

----------
assay: activators of NF-kB expression in neurons, primary screen, cell-based, HTS (AID 1239); settings: human neuronal cells, NF-kB reporter expression; at 12.5 µM
About 3,100 (1.6%) of roughly 190,000 compounds were called active. No stated cut-off is given here; in the data, active means fold change above about 3.3; inconclusive means no clear call, values can overlap the other calls; inactive means below that. This is one part of a sample in which actives are shown more often than they occur.
// one of True for active, False for inactive, no free text

-- ask Recorded call for CC(=O)Nc1ccc(CN2CCN(Cc3ccc(F)c(F)c3)C(CCO)C2)cc1 (stereo not given) ?
-- reply False

-- ask Given CN1CCN(CC(=O)Nc2cccc([N+](=O)[O-])c2)CC1 , state the outcome it received in this test.
-- reply False

-- ask Lab log entry: Cc1cc(NS(=O)(=O)c2ccc(NC(=O)c3cccc(OC(F)F)c3)cc2)nc(C)n1 — outcome as called in the assay?
-- reply False

-- ask Recorded test call requested for CCCCCC(=O)Nc1ccc(-c2cn3cccnc3n2)cc1
-- reply False

-- ask Record lookup: outcome of this test for CCOC(=O)N1CCN(Cc2nc3c(c(=O)n(C)c(=O)n3C)n2Cc2ccccc2)CC1 ?
-- reply False
